Recorded values, source paper PMC3578121.

# assayed system: VCCβ-prism (isolated β-prism domain of Vibrio cholerae cytolysin) (Vibrio cholerae serotype O1, UniProt P09545)
# Sequence (P09545 611-741 limits assumed): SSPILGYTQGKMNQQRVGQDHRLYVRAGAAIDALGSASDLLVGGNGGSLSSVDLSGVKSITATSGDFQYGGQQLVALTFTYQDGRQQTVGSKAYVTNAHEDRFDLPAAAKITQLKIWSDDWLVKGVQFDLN
# test description: biochemical
# Format: binding
// classify: if (ΔG < -3 kcal/mol) rule met else rule not met

>>> qualitative_label("COC1OC(CO)C(O)C(O)C1O (stereo not drawn) [Me-α-Mannose, methyl-α-mannose]")
"rule met"
>>> qualitative_label("OC[C@H]1OC(O)[C@@H](O)[C@@H](O)[C@@H]1O (some centres unmarked)")
"rule not met"
>>> qualitative_label("OC[C@H]1OC(O)[C@H](O)[C@@H](O)[C@@H]1O (some centres unmarked)")
"rule not met"
>>> qualitative_label("OC[C@H]1O[C@H](O[C@H]2[C@H](O)[C@@H](O)C(O)O[C@@H]2CO)[C@H](O)[C@@H](O)[C@@H]1O (mixture of isomers)")
"rule not met"

---

# assayed system: VCCβ-prism (isolated β-prism domain of Vibrio cholerae cytolysin) (Vibrio cholerae serotype O1)
# test description: biochemical
# Assay type: binding
test readout: Binding detected by ITC

>>> value_measured("O=C[C@H](O)[C@@H](O)[C@H](O[C@@H]1O[C@H](CO)[C@@H](O)[C@H](O)[C@H]1O)[C@H](O)CO")
"did not bind"
>>> value_measured("COC1OC(CO)C(O)C(O)C1O [Me-β-Glucose, Me-β-D-glucose]")
"did not bind"
>>> value_measured("COC1OC(CO)C(O)C(O)C1O [Me-β-Galactose, Me-β-D-galactose]")
"did not bind"
>>> value_measured("CO[C@H]1O[C@H](CO)[C@H](O)[C@H](O)[C@H]1O")
"did not bind"

---

# assayed system: VCCβ-prism (isolated β-prism domain of Vibrio cholerae cytolysin) (Vibrio cholerae serotype O1, UniProt P09545)
# test description: biochemical
The following molecules are shown together with reported Kd values.
test readout: Kd (mM)

>>> value_measured("OC[C@H]1O[C@H](O[C@H]2[C@H](O)[C@@H](O)C(O)O[C@@H]2CO)[C@H](O)[C@@H](O)[C@@H]1O (mixture of isomers)")
30.9
>>> value_measured("COC1OC(CO)C(O)C(O)C1O (stereo not shown)")
3.24
>>> value_measured("OC[C@H]1OC(O)[C@H](O)[C@@H](O)[C@@H]1O (stereo partly shown)")
12
>>> value_measured("OC[C@H]1OC(O)[C@@H](O)[C@@H](O)[C@@H]1O (stereo partly shown)")
14.8
